- TARGET SYSTEM: T1, human cholecystokinin-1 receptor (human, UniProt P32238 1-428)
- T1 construct: whole, on cells; also called CCK-1R; CCK-1 receptor
- T1 sequence (looked up): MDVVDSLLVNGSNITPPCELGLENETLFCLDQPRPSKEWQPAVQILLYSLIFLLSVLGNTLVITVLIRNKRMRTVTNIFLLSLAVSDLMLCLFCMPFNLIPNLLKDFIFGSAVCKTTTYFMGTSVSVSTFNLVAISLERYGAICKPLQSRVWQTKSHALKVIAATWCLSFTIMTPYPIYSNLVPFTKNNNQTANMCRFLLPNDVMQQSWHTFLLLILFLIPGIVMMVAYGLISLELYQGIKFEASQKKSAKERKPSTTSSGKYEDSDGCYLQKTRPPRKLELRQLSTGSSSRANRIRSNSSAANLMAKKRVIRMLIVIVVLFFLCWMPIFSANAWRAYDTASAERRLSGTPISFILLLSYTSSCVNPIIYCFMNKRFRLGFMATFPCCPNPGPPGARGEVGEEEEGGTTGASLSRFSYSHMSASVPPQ
- METHOD SUMMARY: SPA competition vs [125I]-CCK-8s, membranes
pIC50: −log10 of the molar value. Starred links: 1 amine or outer side, 2 acyl side, 3 side chain; linkers in the order of their positions; H or OH if unused. Non-standard residues stand in square brackets, D forms with d. *: point of attachment. Phe(4-CH2SO3H) = N[C@@H](Cc1ccc(CS(=O)(=O)O)cc1)C(=O)O; sY = N[C@@H](Cc1ccc(OS(=O)(=O)O)cc1)C(=O)O; C18 diacid = O=C(O)CCCCCCCCCCCCCCCCC(=O)*; γGlu = O=C(O)[C@H](CCC(=O)[*:2])N[*:1]; βAsp = O=C(O)[C@H](CC(=O)[*:2])N[*:1]; Met(O2) = CS(=O)(=O)CC[C@H](N)C(=O)O; NMeF = CN[C@@H](Cc1ccccc1)C(=O)O; dNMeD = CN[C@H](CC(=O)O)C(=O)O; Nle = CCCC[C@H](N)C(=O)O; AEEA = NCCOCCOCC(=O)O
RECORDED ENDPOINT: pIC50

{C18 diacid-γGlu-AEEA-AEEA}-D[sY]LGW[Met(O2)][dNMeD][NMeF]-NH2 ... 9.19
{C18 diacid-γGlu-AEEA-AEEA}-[βAsp][Phe(4-CH2SO3H)][Nle]GW[Nle][dNMeD][NMeF]-NH2 (SMILES CCCC[C@H](NC(=O)[C@H](Cc1ccc(CS(=O)(=O)O)cc1)NC(=O)C[C@H](NC(=O)COCCOCCNC(=O)COCCOCCNC(=O)CC[C@H](NC(=O)CCCCCCCCCCCCCCCCC(=O)O)C(=O)O)C(=O)O)C(=O)NCC(=O)N[C@@H](Cc1c[nH]c2ccccc12)C(=O)N[C@@H](CCCC)C(=O)N(C)[C@H](CC(=O)O)C(=O)N(C)[C@@H](Cc1ccccc1)C(N)=O, X = Nle or Nal) ... 10.20
{C18 diacid-γGlu-AEEA-AEEA}-D[sY]SGW[Nle][dNMeD][NMeF]-NH2 (SMILES CCCC[C@H](NC(=O)[C@H](Cc1c[nH]c2ccccc12)NC(=O)CNC(=O)[C@H](CO)NC(=O)[C@H](Cc1ccc(OS(=O)(=O)O)cc1)NC(=O)[C@H](CC(=O)O)NC(=O)COCCOCCNC(=O)COCCOCCNC(=O)CC[C@H](NC(=O)CCCCCCCCCCCCCCCCC(=O)O)C(=O)O)C(=O)N(C)[C@H](CC(=O)O)C(=O)N(C)[C@@H](Cc1ccccc1)C(N)=O, X = Nle or Nal) ... 10.24
